Cited source: ChEMBL document CHEMBL5126557

- assayComment: Cytotoxicity against human TZM-bl cells assessed as reduction in cell viability by CellTitre-Glo assay
- Format: toxicity, cell-based
Binary call on CC50 with cut-off 30 µM: strictly below means 1.0, and equality or higher means 0.0.

Previously resolved entries follow.
| structureString | class |
| --- | --- |
| CC(C)C[C@H](NC(=O)CCCCCCCNC(=O)[C@]12CCC(C)(C)C[C@H]1C1=CC[C@@H]3[C@@]4(C)CC[C@H](O)C(C)(C)[C@@H]4CC[C@@]3(C)[C@]1(C)CC2)[C@H](O)CC(=O)O | 1.0 |
| CC(C)C[C@H](NC(=O)CCCCCCCNC(=O)[C@]12CCC(C)(C)C[C@H]1[C@H]1C(=O)C[C@@H]3[C@@]4(C)CC[C@H](O)C(C)(C)[C@@H]4CC[C@@]3(C)[C@]1(C)CC2)[C@@H](O)CC(=O)O | 0.0 |
| CC(C)C[C@H](NC(=O)CCCCCCCNC(=O)[C@]12CC[C@@H](C)[C@H](C)[C@H]1C1=CC[C@@H]3[C@@]4(C)CC[C@H](O)C(C)(C)[C@@H]4CC[C@@]3(C)[C@]1(C)CC2)[C@H](O)CC(=O)O | 0.0 |
| C=C(C)[C@@H]1CC[C@]2(C(=O)NCCCCCCCC(=O)N[C@@H](CC(C)C)[C@@H](O)CC(=O)O)CC[C@]3(C)[C@H](CC[C@@H]4[C@@]5(C)CC[C@H](O)C(C)(C)[C@@H]5CC[C@]43C)[C@@H]12 | 1.0 |

Now for a further molecule.
Data request: Is CC50 strictly under 30 µM for the entry CC(C)C[C@H](NC(=O)CCCCCCCNC(=O)[C@]12CC[C@@H](C)[C@H](C)[C@H]1C1=CC[C@@H]3[C@@]4(C)CC[C@H](O)C(C)(C)[C@@H]4CC[C@@]3(C)[C@]1(C)CC2)[C@@H](O)CC(=O)O ?
Data returned: 0.0
